tested on: PDE4D5 (Homo sapiens)
Construct: stably expressed the full-length human PDE4D5, PDE4B1 and PDE4A4 long isoforms; made in house
experiment summary: PDE assay, [3H]cAMP hydrolysis by HEK-PDE4D5 cell lysate cytosol fraction
Assay type: biochemical
setup conditions: 30 μM; mean % increase in counts over basal activity
measured attribute: activation at 30 µM (%)
Quick note: give the figure in %, leave out the unit.

Req: Tell me measured activation at 30 µM for CCn1nc(-c2ccc(Cl)c(OC(C)C)c2)nc1CC(=O)NCc1cc(C)cc(C)n1 please.
Resp: 34.3

Req: Dear colleague, please send me the reported activation at 30 µM for CCn1nc(-c2ccc(Cl)c(OC(C)C)c2)nc1CC(=O)NCc1cc(C)nc(C)c1 when you can.
Resp: 28.5

Req: Identify the reported activation at 30 µM for the following entry. CCn1nc(-c2ccc(Cl)c(F)c2)nc1CC(=O)NCc1cc(C)nc(C)c1
Resp: 73.2

Req: Identify the reported activation at 30 µM for the following entry. Cn1nc(-c2ccc(Cl)c(F)c2)nc1CC(=O)NCc1ccc2[nH]ncc2c1
Resp: 60.8

---

tested on: PDE4D5 (Homo sapiens, UniProt Q08499)
Construct: stably expressed the full-length human PDE4D5, PDE4B1 and PDE4A4 long isoforms; made in house
Sequence (Q08499 1-745 isoform Q08499-6): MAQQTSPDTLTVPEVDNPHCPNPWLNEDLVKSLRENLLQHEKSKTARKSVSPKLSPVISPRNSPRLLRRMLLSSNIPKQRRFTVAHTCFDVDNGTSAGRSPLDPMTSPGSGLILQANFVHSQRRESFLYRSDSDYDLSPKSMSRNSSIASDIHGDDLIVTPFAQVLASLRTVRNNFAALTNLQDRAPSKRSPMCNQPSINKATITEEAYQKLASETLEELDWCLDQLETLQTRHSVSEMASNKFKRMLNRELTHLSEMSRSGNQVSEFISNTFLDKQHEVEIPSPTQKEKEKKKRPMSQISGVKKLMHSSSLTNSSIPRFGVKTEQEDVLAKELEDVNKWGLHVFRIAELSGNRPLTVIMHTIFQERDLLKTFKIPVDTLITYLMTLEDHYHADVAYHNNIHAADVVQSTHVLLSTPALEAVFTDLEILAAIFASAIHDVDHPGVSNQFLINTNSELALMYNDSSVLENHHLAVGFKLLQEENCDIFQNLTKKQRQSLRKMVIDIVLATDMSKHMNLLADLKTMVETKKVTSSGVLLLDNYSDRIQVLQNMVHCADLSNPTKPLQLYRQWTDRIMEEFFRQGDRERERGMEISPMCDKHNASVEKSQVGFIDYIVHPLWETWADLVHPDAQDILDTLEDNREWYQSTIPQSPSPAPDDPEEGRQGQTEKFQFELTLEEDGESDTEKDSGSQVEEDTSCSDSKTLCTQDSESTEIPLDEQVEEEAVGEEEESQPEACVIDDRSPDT
experiment summary: PDE assay, [3H]cAMP hydrolysis by HEK-PDE4D5 cell lysate cytosol fraction
Assay type: biochemical
setup conditions: 30 μM; mean % increase in counts over basal activity
1 means recorded activation at 30 µM is 60% or above; -1 means it is below 60%.

Req: Threshold query (activation at 30 µM >= 60%) on CCn1nc(-c2ccc(Cl)c(F)c2)nc1CC(=O)NC1(c2cc(C)nc(C)c2)CC1
Resp: -1

Req: Identify whether the reported activation at 30 µM of the following compound is 60% or greater: CCn1nc(-c2ccc(Cl)c(F)c2)nc1CC(=O)NCc1ccnc(C(F)F)c1
Resp: -1

Req: // inclusive: activation at 30 µM at least 60%? input: CCn1nc(-c2ccc(Cl)c(F)c2)nc1CC(=O)N[C@H]1C[C@H](O)c2ccccc21
Resp: -1

Req: Check the entry CCn1nc(-c2ccc(Cl)c(F)c2)nc1CC(=O)NCc1ccc(OC)cc1 : does activation at 30 µM equal or exceed 60%?
Resp: -1

Req: Check the entry CCOc1cc(-c2nc(CC(=O)NCc3cc(Cl)cc(Cl)c3)n(CC)n2)ccc1Cl : does activation at 30 µM equal or exceed 60%?
Resp: -1

Req: Given CCn1nc(-c2ccc(Cl)c(F)c2)nc1CC(=O)NCc1cc(Cl)cc(Cl)c1 , state whether its activation at 30 µM is at least 60%.
Resp: -1

Req: Given the entry CCn1nc(-c2ccc(Cl)c(F)c2)nc1CC(=O)NCc1cc(C)cc(Cl)c1 , answer whether its activation at 30 µM meets or surpasses 60%.
Resp: 1

Req: Does activation at 30 µM meet or surpass 60% for CC(C)Oc1cc(-c2nc(CC(=O)NCc3cccc(F)c3)n(C)n2)ccc1Cl ?
Resp: -1

Req: // inclusive: activation at 30 µM at least 60%? input: O=C(O)CCn1nc(-c2ccc(Cl)c(F)c2)nc1CC(=O)NCc1cc(Cl)cc(Cl)c1
Resp: 1

Req: # bool: activation at 30 µM of CCn1nc(-c2ccc(Cl)c(F)c2)nc1C(F)(F)C(=O)NCc1cc(Cl)cc(Cl)c1 >= 60%
Resp: -1

Req: Identify whether the reported activation at 30 µM of the following compound is 60% or greater: CCn1nc(-c2ccc(OC(F)(F)F)cc2)nc1CC(=O)NCc1cc(Cl)cc(Cl)c1
Resp: -1

Req: I'd appreciate it if you could say whether Cc1cc(CNC(=O)Cc2nc(-c3ccc(Cl)c(F)c3)nn2CC2CC2)cc(C)n1 has activation at 30 µM at least equal to 60%.
Resp: 1

Req: activation at 30 µM >= 60% for CCn1nc(-c2ccc(Cl)c(F)c2)nc1CC(=O)NCc1ccc2[nH]ncc2c1 ?
Resp: 1

Req: Evaluate O=C(Cc1nc(-c2ccc(Cl)c(F)c2)nn1CCO)NCc1cc(Cl)cc(Cl)c1 : activation at 30 µM at minimum 60%?
Resp: -1

Req: Is activation at 30 µM at least 60%? Consider CCn1nc(-c2ccc(Cl)c(F)c2)nc1CC(=O)NCc1ccc2[nH]c(=O)[nH]c2c1
Resp: -1

Req: I'd appreciate it if you could say whether CCn1nc(-c2ccc(Cl)c(F)c2)nc1CC(=O)NCc1cccc(F)c1F has activation at 30 µM at least equal to 60%.
Resp: -1

// data source = patent US11560373B2
